As shown below, each of these molecules has a reported log10 of EC50 value.
tested on: IL-6 (THP-1 cells); test: IL-6 inhibition in LPS-stimulated THP-1 human monocyte cells (HTRF); assay type: cell-based; conditions: LPS 500 ng/mL, 22 hours, IL6 HTRF
observed-property: log10 of EC50 (log10 of the value in nM)

molecule="Fc1cccc(-c2cccc3[nH]c(-c4n[nH]c5ccc(-c6cccnc6)nc45)cc23)c1 [Compound 4]" observed_property="log10 of EC50" data_value=2.64
molecule="O=C(CC1CCNCC1)Nc1cncc(-c2ccc3[nH]nc(-c4cc5c(-c6ccccn6)cccc5[nH]4)c3n2)c1 [Compound 621]" observed_property="log10 of EC50" data_value=1.72
molecule="CN(C)Cc1cncc(-c2ccc3[nH]nc(-c4cc5c(-c6cccs6)cccc5[nH]4)c3n2)c1 [Compound 349]" observed_property="log10 of EC50" data_value=2.14
molecule="CN(C)CCNc1cc(F)cc(-c2cccc3[nH]c(-c4n[nH]c5ccc(-c6cncnc6)nc45)cc23)c1 [Compound 475]" observed_property="log10 of EC50" data_value=1.26
molecule="O=C(Nc1cncc(-c2ccc3[nH]nc(-c4cc5c(-c6ccccc6F)cccc5[nH]4)c3n2)c1)C1CC1 [Compound 76]" observed_property="log10 of EC50" data_value=1.71
molecule="CN(C)CCNc1cc(F)cc(-c2cccc3[nH]c(-c4n[nH]c5ccc(-c6ccccn6)nc45)cc23)c1 [Compound 476]" observed_property="log10 of EC50" data_value=2.44
molecule="FC1(F)CCN(Cc2cncc(-c3ccc4[nH]nc(-c5cc6c(-c7ccccn7)cccc6[nH]5)c4n3)c2)C1 [Compound 166]" observed_property="log10 of EC50" data_value=2.49
molecule="Cc1ncc(-c2ccc3[nH]nc(-c4cc5ccccc5[nH]4)c3n2)n1C [Compound 681]" observed_property="log10 of EC50" data_value=1.23
